Target: Recombinant human DDR2 (aa427-855 containing a GST tag) (Homo sapiens (Human), UniProt Q16832)
Sequence (Q16832 427-855): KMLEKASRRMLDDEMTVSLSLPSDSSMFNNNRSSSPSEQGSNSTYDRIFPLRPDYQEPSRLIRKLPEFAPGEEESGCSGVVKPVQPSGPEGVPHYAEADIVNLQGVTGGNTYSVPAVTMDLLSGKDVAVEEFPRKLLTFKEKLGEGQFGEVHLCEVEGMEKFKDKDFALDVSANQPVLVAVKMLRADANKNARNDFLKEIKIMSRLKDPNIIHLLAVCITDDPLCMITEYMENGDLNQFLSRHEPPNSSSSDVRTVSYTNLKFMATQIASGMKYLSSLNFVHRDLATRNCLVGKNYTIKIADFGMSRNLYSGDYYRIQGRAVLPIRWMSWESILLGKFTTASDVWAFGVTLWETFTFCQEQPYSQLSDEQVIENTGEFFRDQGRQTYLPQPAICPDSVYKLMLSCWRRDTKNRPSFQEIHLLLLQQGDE
Experiment: LanthaScreen Eu Kinase Binding Assay DDR2
Settings: Kinase Tracer 178 10 nM, at least two independent replicates, read-out: DDR2 pIC50 (converted)
Catalogue of IC50 readings, one per entry.

Worked examples, 4 compounds total:
- Compound: "Cc1cccc2c1n(-c1ccc(-c3cncc4c3cnn4C)cc1)c(=O)n2CC(=O)N1CCOCC1C(F)(F)F (stereo not shown)"
  IC50: "10 to 100 nM"
- Compound: "Cc1cccc2c1n(-c1ccc(-c3cncc4c3cnn4C)nc1)c(=O)n2CC(=O)NCC(F)(F)F"
  IC50: "10 to 100 nM"
- Compound: "Cc1cccc2c1n(-c1ccc(-c3cncc4c3cnn4C)nc1)c(=O)n2CC(=O)N[C@H](C)C(F)(F)F"
  IC50: "100 to 1000 nM"
- Compound: "Cc1cccc2c1n(-c1ccc(-c3cncc4[nH]ncc34)cn1)c(=O)n2CC(=O)NCC(F)(F)F"
  IC50: "100 to 1000 nM"

[ask] Need IC50 of Cn1ncc2c(-c3ccc(-n4c(=O)n(CC(=O)N5CCC[C@H]5C(F)F)c5ccccc54)cc3)cncc21 , thanks.
[reply] 10 to 100 nM

[ask] Try the compound Cc1cccc2c1n(-c1cnc(-c3cncc4c3cnn4C)cn1)c(=O)n2CC(=O)N[C@@H](C)C(F)(F)F
[reply] 10 to 100 nM

----------
Target: Recombinant human DDR1 (aa440-876 containing a GST tag) (Homo sapiens (Human))
Assay: LanthaScreen Eu Kinase Binding Assay DDR1
Settings: Kinase Tracer 178 5 nM, at least two independent replicates, read-out: DDR1 pIC50 (converted)
Quantity kind: IC50

Worked examples, 5 compounds total:
- Compound: "Cc1cc(-c2cncc3c2cnn3C)cc(C)c1-n1c(=O)n(CC(=O)NCC(F)(F)F)c2ccccc21"
  IC50: "100 to 1000 nM"
- Compound: "C[C@@H]1CCCN1C(=O)Cn1c(=O)n(-c2ccc(-c3cncc4c3cnn4C)cc2)c2ccccc21"
  IC50: "10 to 100 nM"
- Compound: "Cc1cccc2c1n(-c1ncc(-c3cncc4c3cnn4C)cn1)c(=O)n2CC(=O)NCC(F)(F)F"
  IC50: "10 to 100 nM"
- Compound: "CC(NC(=O)Cn1c(=O)n(-c2ccc(-c3cncc4c3cnn4C)cc2)c2ccccc21)C(F)(F)F (stereo not drawn)"
  IC50: "10 to 100 nM"
- Compound: "Cc1cc(-c2cncc3c2cnn3C)ncc1-n1c(=O)n(CC(=O)N[C@@H](C)C(F)(F)F)c2cccc(C)c21"
  IC50: "10 to 100 nM"

For the next question, use this compound.
[ask] Need IC50 of COc1cccc2c1n(-c1ccc(-c3cncc4c3cnn4C)cc1)c(=O)n2CC(=O)NCC(F)(F)F , thanks.
[reply] 10 to 100 nM

----------
Biological target: Recombinant human DDR1 (aa440-876 containing a GST tag) (Homo sapiens (Human))
Test: LanthaScreen Eu Kinase Binding Assay DDR1
Conditions: Kinase Tracer 178 5 nM, at least two independent replicates, read-out: DDR1 pIC50 (converted)
Quantity kind: IC50

- Molecule: "Cn1ncc2c(-c3ccc(-n4c(=O)n(CC(=O)N5CC(C(F)(F)F)C5)c5ccccc54)cc3)cncc21 [Example 34]"
  IC50: "100 to 1000 nM"
- Molecule: "Cc1nc(-c2cncc3[nH]nc(C)c23)ccc1-n1c(=O)n(CC(=O)NCC(F)(F)F)c2cccc(C)c21 [Example 103]"
  IC50: "10 to 100 nM"
- Molecule: "Cc1cc(-n2c(=O)n(CC(=O)NCC(F)(F)F)c3cccc(C)c32)cnc1-c1cncc2[nH]ncc12 [Example 99]"
  IC50: "100 to 1000 nM"
- Molecule: "Cn1ncc2c(-c3ccc(-n4c(=O)n(CC(=O)NC5CC5(F)F)c5ccccc54)cc3)cncc21 (stereo not shown) [Example 36]"
  IC50: "100 to 1000 nM"
- Molecule: "Cc1nc(-n2c(=O)n(CC(=O)N[C@@H](C)C(F)(F)F)c3cccc(C)c32)cnc1-c1cncc2c1cnn2C [Example 101]"
  IC50: "100 to 1000 nM"

[ask] Need IC50 of Cc1cccc2c1n(-c1ccc(-c3cncc4[nH]ncc34)cc1)c(=O)n2CC(=O)NCC(F)(F)F [Example 44] , thanks.
[reply] < 10 nM

[ask] Try the molecule O=C(Cn1c(=O)n(-c2ccc(-c3cncc4[nH]ncc34)cc2)c2ccccc21)NCC(F)(F)F [Example 41]
[reply] 10 to 100 nM

----------
Catalogue of IC50 readings, one per entry.
Target: Recombinant human DDR1 (aa440-876 containing a GST tag) (Homo sapiens (Human))
Assay: LanthaScreen Eu Kinase Binding Assay DDR1
Conditions: Kinase Tracer 178 5 nM, at least two independent replicates, read-out: DDR1 pIC50 (converted)
Protocol: DDR1 and DDR2 Biochemical Assay Method The capacity of compounds to bind to DDR1 and DDR2 was quantified using a LanthaScreen Eu Kinase Binding Assay. […] Following 60-minute incubation at room temperature, time-resolved fluorescence was measured on a BMG Labtech PHERAstar plate reader. […] Data was analysed using a four-parameter logistic model to calculate IC50 values, with at least two independent replicates were performed for each compound.

Worked examples, 2 molecules total:
- Molecule: "Cc1cc(-c2cncc3c2cnn3C)ccc1-n1c(=O)n(CC(=O)NCC(F)(F)F)c2ccccc21"
  Target or system: "Recombinant human DDR1 (aa440-876 containing a GST tag) (Homo sapiens (Human))"
  Result: "10 to 100 nM"
- Molecule: "Cn1ncc2c(-c3ccc(-n4c(=O)n(CC(=O)N5CCO[C@H](C(F)(F)F)C5)c5ccccc54)cc3)cncc21"
  Target or system: "Recombinant human DDR1 (aa440-876 containing a GST tag) (Homo sapiens (Human))"
  Result: "10 to 100 nM"

[ask] Need IC50 of Cn1ncc2c(-c3ccc(-n4c(=O)n(CC(=O)NCC(F)(F)F)c5ccccc54)c(F)c3)cncc21 , thanks.
[reply] 100 to 1000 nM

[ask] Try the molecule Cn1ncc2c(-c3ccc(-n4c(=O)n(CC(=O)NCC(F)(F)F)c5ccccc54)nc3)cncc21
[reply] 100 to 1000 nM

[ask] Try the molecule Cn1ncc2c(-c3ccc(-n4c(=O)n(CC(=O)N5CCCC[C@@H]5C(F)(F)F)c5ccccc54)cc3)cncc21
[reply] 100 to 1000 nM

[ask] Try the molecule Cn1ncc2c(-c3ccc(-n4c(=O)n(CC(=O)NCC(F)(F)F)c5ccccc54)cc3)cncc21
[reply] 10 to 100 nM

[ask] Try the molecule Cc1cccc2c1n(-c1cnc(-c3cncc4c3cnn4C)cn1)c(=O)n2CC(=O)N[C@H](C)C(F)(F)F
[reply] 10 to 100 nM

[ask] Try the molecule Cc1nc(-c2cncc3c2cnn3C)cnc1-n1c(=O)n(CC(=O)N[C@@H](C)C(F)(F)F)c2cccc(C)c21
[reply] 10 to 100 nM

[ask] Try the molecule Cn1ncc2c(-c3ccc(-n4c(=O)n(CC(=O)NCC(F)(F)F)c5ccccc54)cc3F)cncc21
[reply] 10 to 100 nM

[ask] Try the molecule Cc1cccc2c1n(-c1ccc(-c3cncc4c3cnn4C)nn1)c(=O)n2CC(=O)NCC(F)(F)F
[reply] 10 to 100 nM

[ask] Try the molecule Cc1cc(-c2cncc3c2cnn3C)ccc1-n1c(=O)n(CC(=O)N2CCOC(C(F)(F)F)C2)c2ccccc21 (centres unmarked)
[reply] 10 to 100 nM

[ask] Try the molecule CC(CNC(=O)Cn1c(=O)n(-c2ccc(-c3cncc4c3cnn4C)cc2)c2ccccc21)C(F)(F)F (centres unmarked)
[reply] 10 to 100 nM

[ask] Try the molecule Cc1cccc2c1n(-c1ccc(-c3cncc4c3cnn4C)cn1)c(=O)n2CC(=O)N1CCO[C@@H](C(F)(F)F)C1
[reply] 10 to 100 nM

[ask] Try the molecule Cc1nc(-n2c(=O)n(CC(=O)NCC(F)(F)F)c3cccc(C)c32)cnc1-c1cncc2[nH]nc(C)c12
[reply] 10 to 100 nM

[ask] Try the molecule Cc1cccc2c1n(-c1ccc(-c3cncc4c3cnn4C)cn1)c(=O)n2CC(=O)NCC(F)(F)F
[reply] 10 to 100 nM

[ask] Try the molecule Cc1nc(-c2cncc3c2cnn3C)ccc1-n1c(=O)n(CC(=O)N[C@@H](C)C(F)(F)F)c2cccc(C)c21
[reply] 10 to 100 nM

----------
Molecular target: Recombinant human DDR1 (aa440-876 containing a GST tag) (Homo sapiens (Human), UniProt Q08345)
Sequence (Q08345 other isoform, or with tags, fused parts or gaps): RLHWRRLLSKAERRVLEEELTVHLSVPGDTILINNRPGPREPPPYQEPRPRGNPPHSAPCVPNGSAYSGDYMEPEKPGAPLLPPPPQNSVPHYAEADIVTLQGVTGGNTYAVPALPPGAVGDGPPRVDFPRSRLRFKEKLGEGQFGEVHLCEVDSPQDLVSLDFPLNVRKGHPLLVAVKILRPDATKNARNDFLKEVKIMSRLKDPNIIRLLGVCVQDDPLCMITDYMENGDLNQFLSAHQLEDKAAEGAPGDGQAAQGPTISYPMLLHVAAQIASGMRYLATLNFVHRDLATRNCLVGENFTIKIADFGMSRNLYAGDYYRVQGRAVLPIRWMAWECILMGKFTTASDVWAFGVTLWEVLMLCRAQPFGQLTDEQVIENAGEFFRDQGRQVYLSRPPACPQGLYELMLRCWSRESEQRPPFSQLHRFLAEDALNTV
Experiment: LanthaScreen Eu Kinase Binding Assay DDR1
Settings: Kinase Tracer 178 5 nM, at least two independent replicates
Quantity kind: DDR1 pIC50

Worked examples, 6 molecules total:
- Molecule: "Cc1cc(-c2cncc3c2cnn3C)ccc1-n1c(=O)n(CC(=O)NCC(F)(F)F)c2cccc(C)c21 [Example 16]"
  DDR1 pIC50: "A (pIC50>8)"
- Molecule: "Cc1cc(-c2cncc3[nH]ncc23)ccc1-n1c(=O)n(CC(=O)NCC(F)(F)F)c2ccccc21 [Example 14]"
  DDR1 pIC50: "A (pIC50>8)"
- Molecule: "Cc1cccc2c1n(-c1ccc(-c3cncc4[nH]ncc34)nc1)c(=O)n2CC(=O)N[C@@H](C)C(F)(F)F [Example 68]"
  DDR1 pIC50: "A (pIC50>8)"
- Molecule: "Cc1cc(-n2c(=O)n(CC(=O)NCC(F)(F)F)c3cccc(C)c32)cnc1-c1cncc2c1cnn2C [Example 97]"
  DDR1 pIC50: "D (pIC50≤6)"
- Molecule: "Cn1ncc2c(-c3ccc(-n4c(=O)n(CC(=O)NCC(F)(F)F)c5ccncc54)cc3)cncc21 [Example 77]"
  DDR1 pIC50: "D (pIC50≤6)"
- Molecule: "Cn1ncc2c(-c3ccc(-n4c(=O)n(CC(=O)N5CCC[C@H]5C(F)F)c5ccccc54)cc3)cncc21 [Example 25]"
  DDR1 pIC50: "A (pIC50>8)"

For the next question, use this molecule.
[ask] Need DDR1 pIC50 of Cc1cc(-n2c(=O)n(CC(=O)NCC(F)(F)F)c3ccccc32)ccc1-c1cncc2c1cnn2C [Example 5] , thanks.
[reply] D (pIC50≤6)
